test system: HepG2; test: cytotoxicity call (relative viability < 0.9); conditions: 10 µM
Among all 39,000 compounds or so, about 3,300 (8.5%) were called active. For the sample, actives were picked, then their nearest neighbours and some compounds at random.
VALUE_TYPE: cytotoxicity call

Example compounds with recorded cytotoxicity call:
C[C@H](CO)N1C[C@H](C)[C@@H](CN(C)Cc2ccccc2F)Oc2cc(C#CC3CC3)ccc2S1(=O)=O ... inactive
C[C@H](CO)N1C[C@H](C)[C@H](CN(C)Cc2ccc(C(=O)Nc3ccccc3N)cc2)Oc2ccc(NS(=O)(=O)c3cn(C)cn3)cc2C1=O ... inactive
Cn1cnc(CCNC(=O)C[C@@H]2CC[C@@H]3[C@H](COC[C@@H](O)CN3C(=O)Nc3ccc(Cl)cc3)O2)c1 ... inactive
CC(C)NC(=O)N(C)C[C@@H]1Oc2ncc(-c3ccc(C(=O)N(C)C)cc3)cc2C(=O)N([C@@H](C)CO)C[C@H]1C ... inactive
CN(C)CC(=O)N[C@@H]1C=C[C@@H](CC(=O)NCCN2CCCCC2)O[C@H]1CO ... inactive
COc1ccc(NC(=O)N(C)C[C@H]2OCCCC[C@H](C)Oc3ccc(NC(=O)NC4CCCCC4)cc3C(=O)N([C@H](C)CO)C[C@@H]2C)cc1 ... inactive
O=C(C[C@@H]1C=C[C@@H](NC(=O)c2cccnc2)[C@@H](CO)O1)NCCN1CCCCC1 ... inactive
C[C@@H]1CN([C@@H](C)CO)S(=O)(=O)c2ccc(Br)cc2O[C@H]1CN(C)Cc1ccc(-c2ccccc2)cc1 ... inactive

GET /value?item= COc1ccc(S(=O)(=O)Nc2cccc3c2O[C@@H](CN(C)S(=O)(=O)c2cn(C)cn2)[C@H](C)CN([C@@H](C)CO)C3=O)cc1 &field=cytotoxicity call returns inactive

GET /value?item= C[C@@H]1CCCCO[C@H](CN(C)Cc2ccccc2)[C@H](C)CN([C@@H](C)CO)C(=O)c2cc(NC(=O)CCC(F)(F)F)ccc2O1 &field=cytotoxicity call returns inactive

GET /value?item= Cc1noc(C)c1NC(=O)Nc1ccc2c(c1)C(=O)N([C@H](C)CO)C[C@@H](C)[C@H](CN(C)Cc1ccccc1)OCCCC[C@H](C)O2 &field=cytotoxicity call returns inactive

###

test system: HepG2; assay: cytotoxicity call (relative viability < 0.9); settings: 10 µM
Out of some 39,000 compounds screened, about 3,300 (8.5%) were called active. This is one part of a sample in which actives are shown more often than they occur.
VALUE_TYPE: cytotoxicity call

C[C@H]1CN([C@@H](C)CO)C(=O)c2cc(C#CCN(C)C)cnc2O[C@@H]1CN(C)Cc1ccc(C(=O)O)cc1 ... inactive
C[C@@H]1CCCCO[C@H](CN(C)C(=O)Nc2ccc(C(F)(F)F)cc2)[C@@H](C)CN([C@@H](C)CO)C(=O)c2cc(NC(=O)Nc3cccc4ccccc34)ccc2O1 ... inactive
C[C@@H]1CN([C@@H](C)CO)S(=O)(=O)c2ccc(C#CC(C)(C)O)cc2O[C@H]1CN(C)Cc1ccc(F)cc1 ... inactive
O=C(Cc1n[nH]c(=O)[nH]1)NCc1n[nH]c2c1CCCCC2 ... inactive

###

system: HepG2; test: cytotoxicity call (relative viability < 0.9); conditions: 10 µM
The whole screen tested about 39,000 compounds, of which about 3,300 (8.5%) were called active. For the sample, actives were picked, then their nearest neighbours and some compounds at random.
Parameter call: string, one of active, inactive

Look over these answered cases.
O=C(C[C@@H]1CC[C@H]2[C@@H](COC[C@H](O)CN2C(=O)Nc2cccc(F)c2)O1)NCCCN1CCOCC1 ... inactive
C[C@@H]1CCCCO[C@H](CN(C)C(=O)c2ccccc2)[C@@H](C)CN([C@H](C)CO)C(=O)c2cc(NC(=O)Cc3ccccc3)ccc2O1 ... inactive
COc1ccc(S(=O)(=O)Nc2ccc3c(c2)C(=O)N([C@@H](C)CO)C[C@@H](C)[C@@H](CN(C)Cc2ccc(C(F)(F)F)cc2)OCCCC[C@@H](C)O3)cc1 ... active
C[C@H]1CN([C@@H](C)CO)S(=O)(=O)c2ccc(C3=CCCC3)cc2O[C@@H]1CN(C)S(=O)(=O)c1cn(C)cn1 ... inactive
N[C@@H]1CC[C@@H](CCn2cc(-c3ccccn3)nn2)O[C@H]1CO ... inactive

Recorded test call requested for COc1ccc(S(=O)(=O)Nc2ccc3c(c2)C(=O)N([C@@H](C)CO)C[C@@H](C)[C@@H](CN(C)C(=O)Nc2c(C)noc2C)OCCCC[C@@H](C)O3)cc1
inactive

Recorded test call requested for CC1=CC(C)(C)N(C(=O)Nc2ccc(C)cc2)c2ccccc21
inactive

Recorded test call requested for COc1ccc(S(=O)(=O)Nc2ccc3c(c2)CC(=O)N([C@@H](C)CO)C[C@@H](C)[C@@H](CN(C)S(=O)(=O)c2ccccc2)O3)cc1
inactive

Recorded test call requested for N=C(C[n+]1ccccc1)NO
active

Recorded test call requested for CCOc1cc2ncc(C#N)c(Nc3ccc(OCc4ccccn4)c(Cl)c3)c2cc1NC(=O)/C=C/[C@H]1CCCN1C
active

Recorded test call requested for Cc1ccccc1S(=O)(=O)N1C[C@@H](O)COC[C@@H]2O[C@@H](CC(=O)N3CCOCC3)CC[C@H]21
inactive

Recorded test call requested for CN([C@@H](Cc1ccc(OS(=O)(=O)c2cccc3cnccc23)cc1)C(=O)N1CCN(c2ccccc2)CC1)S(=O)(=O)c1cccc2cnccc12
inactive

Recorded test call requested for C[C@H]1CN([C@@H](C)CO)C(=O)CCCn2cc(nn2)CO[C@H]1CN(C)C(=O)Nc1ccccc1C(F)(F)F
inactive

Recorded test call requested for CC(C)NC(=O)Nc1ccc2c(c1)CC(=O)N([C@@H](C)CO)C[C@H](C)[C@@H](CN(C)S(=O)(=O)c1ccc(F)cc1)O2
inactive

Recorded test call requested for Cc1ccc(OC(=O)n2c3ccccc3c3ccccc32)cc1
inactive

Recorded test call requested for C[C@@H]1CCCCO[C@H](CN(C)Cc2ccccc2)[C@@H](C)CN([C@H](C)CO)C(=O)c2cc(NC(=O)c3ccccc3)ccc2O1
inactive

Recorded test call requested for COc1ccccc1[C@@H](NC(=O)C1CCN(CCOc2ccc(Cl)cc2Cl)CC1)c1ccccn1
inactive

Recorded test call requested for COc1ccc2c3c(n(c2c1)C)[C@@H](CO)N(C[C@]13CCN(CC1)C(=O)Nc1cccc(c1)F)S(=O)(=O)C
inactive

###

system: HepG2; assay: cytotoxicity call (relative viability < 0.9); conditions: 10 µM
The whole screen tested about 39,000 compounds, of which about 3,300 (8.5%) were called active. The full list was thinned out, with actives kept by preference.
Parameter call: string, one of active, inactive

Look over these answered cases.
Cc1ccccc1-c1ccc2c(c1)O[C@H](CN(C)C(=O)Nc1ccc(C(F)(F)F)cc1)[C@H](C)CN([C@@H](C)CO)S2(=O)=O ... active
C[C@H](CO)N1C[C@H](C)[C@@H](CN(C)C(=O)Nc2cccc3ccccc23)Oc2ccc(NS(=O)(=O)c3cccs3)cc2C1=O ... inactive
Cc1ccccc1-c1ccc2c(c1)O[C@@H](CN(C)C(=O)Nc1ccc(C(F)(F)F)cc1)[C@H](C)CN([C@H](C)CO)S2(=O)=O ... inactive
Cc1ccc(-c2ccc3c(c2)O[C@@H](CN(C)C(=O)Nc2ccc(C(F)(F)F)cc2)[C@@H](C)CN([C@@H](C)CO)S3(=O)=O)cc1 ... inactive
Nc1nnc(N[C@H]2CCCCNC2=O)[nH]1 ... inactive
C[C@H]1CCCCO[C@@H](CN(C)C(=O)Nc2ccc3c(c2)OCO3)[C@@H](C)CN([C@@H](C)CO)C(=O)c2cc(NC(=O)C3CCCCC3)ccc2O1 ... inactive

Recorded test call requested for COc1ccc(CNC(=O)C[C@H]2C[C@H]3c4cc(NS(=O)(=O)c5ccc(F)cc5)ccc4O[C@H]3[C@H](CO)O2)cc1
inactive

###

system: HepG2; assay: cytotoxicity call (relative viability < 0.9); conditions: 10 µM
About 3,300 (8.5%) of roughly 39,000 compounds were called active. The sample holds actives, similar compounds and a random draw of the others, so the mix is not that of the screen.
Parameter call: string, one of active, inactive

Look over these answered cases.
C[C@@H]1CN([C@H](C)CO)C(=O)c2cccc(NS(=O)(=O)c3ccccc3)c2O[C@H]1CN(C)Cc1ccc(Oc2ccccc2)cc1 ... inactive
COc1ccc(CN(C)C[C@@H]2OCCCC[C@H](C)Oc3ccc(NC(=O)Nc4ccc(F)cc4)cc3C(=O)N([C@@H](C)CO)C[C@H]2C)cc1 ... inactive
C[C@@H]1CN([C@@H](C)CO)S(=O)(=O)c2ccc(C#Cc3ccc(F)cc3)cc2O[C@H]1CN(C)C(=O)CN(C)C ... inactive
C[C@H]1CN([C@@H](C)CO)S(=O)(=O)c2ccc(Br)cc2O[C@H]1CN(C)C(=O)Cc1ccncc1 ... inactive
C[C@H]1CN([C@@H](C)CO)S(=O)(=O)c2ccc(C#Cc3ccc(F)cc3)cc2O[C@@H]1CN(C)C(=O)CN(C)C ... inactive

Recorded test call requested for C[C@H]1CN([C@@H](C)CO)S(=O)(=O)c2ccc(Br)cc2O[C@H]1CN(C)C(=O)Cc1ccccc1
active

Recorded test call requested for C[C@@H]1CN([C@@H](C)CO)S(=O)(=O)c2ccc(C#Cc3ccccc3)cc2O[C@H]1CN(C)C(=O)CN(C)C
inactive

Measured values drawn from the antibiotic and cytotoxicity screens of Wong et al. (2023) for this set.
